- Method: Selectivity index, ratio of HC10 for hemolytic activity in male Sprague-Dawley rat erythrocytes to MIC for antibacterial activity against Escherichia coli ATCC 25922
- Type: toxicity
- Condition summary: read-out: Selectivity Index
Non-standard residues stand in square brackets, D forms with d. Residues, ends and D or L forms follow the SMILES beside them. *: point of attachment. X1 = NC(=O)[C@H](Cc1c[nH]cn1)NC(=O)CNC(=O)[C@@H](N)CN*; Nspe = C[C@H](NCC(=O)O)c1ccccc1; Nphe = O=C(O)CNCc1ccccc1; Nlys = NCCCCNCC(=O)O
For each record, write down the corresponding selectivity ratio.
Form field (numeric): enter value without unit.

Recorded selectivity ratio (compound C[C@@H](c1ccccc1)N(CC(=O)NCC(=O)NC[C@H](N)C(=O)NCC(=O)N[C@@H](Cc1c[nH]cn1)C(N)=O)C(=O)CN(CCCCN)C(=O)CN(C(=O)CN(C(=O)CN(CCCCN)C(=O)CN(C(=O)CN(C(=O)CN(CCCCN)C(=O)CN(C(=O)CN(C(=O)CNCCCCN)[C@@H](C)c1ccccc1)[C@@H](C)c1ccccc1)[C@@H](C)c1ccccc1)[C@@H](C)c1ccccc1)[C@@H](C)c1ccccc1)[C@@H](C)c1ccccc1 (H-[Nlys][Nspe][Nspe][Nlys][Nspe][Nspe][Nlys][Nspe][Nspe][Nlys][Nspe]G-X1) ): 4

Notebook: C[C@@H](c1ccccc1)N(CC(N)=O)C(=O)CN(CCCCN)C(=O)CN(Cc1ccccc1)C(=O)CN(Cc1ccccc1)C(=O)CN(CCCCN)C(=O)CN(C(=O)CN(C(=O)CN(CCCCN)C(=O)CN(Cc1ccccc1)C(=O)CN(Cc1ccccc1)C(=O)CN(CCCCN)C(=O)CNC(=O)[C@H](Cc1c[nH]cn1)NC(=O)CNC(=O)CN)[C@@H](C)c1ccccc1)[C@@H](C)c1ccccc1 (H-GGHG[Nlys][Nphe][Nphe][Nlys][Nspe][Nspe][Nlys][Nphe][Nphe][Nlys][Nspe]-NH2) , selectivity ratio read as 2.3

The compound identified as C[C@@H](c1ccccc1)N(CC(N)=O)C(=O)CN(CCCCN)C(=O)CN(CCCCN)C(=O)CN(C(=O)CN(C(=O)CN(CCCCN)C(=O)CN(C(=O)CN(C(=O)CN(CCCCN)C(=O)CN(CCc1c[nH]c2ccccc12)C(=O)CN(CCc1c[nH]c2ccccc12)C(=O)CNCCCCN)[C@@H](C)c1ccccc1)[C@@H](C)c1ccccc1)[C@@H](C)c1ccccc1)[C@@H](C)c1ccccc1 registered its selectivity ratio at 13.5

Consider C[C@@H](c1ccccc1)N(CC(N)=O)C(=O)CN(CCCCN)C(=O)CN(C(=O)CN(C(=O)CN(CCCCN)C(=O)CN(C(=O)CN(C(=O)CN(CCCCN)C(=O)CN(C(=O)CN(C(=O)CN(CCCCN)C(=O)[C@H](Cc1c[nH]cn1)NC(=O)CNC(=O)CN)[C@@H](C)c1ccccc1)[C@@H](C)c1ccccc1)[C@@H](C)c1ccccc1)[C@@H](C)c1ccccc1)[C@@H](C)c1ccccc1)[C@@H](C)c1ccccc1 (H-GGH[Nlys][Nspe][Nspe][Nlys][Nspe][Nspe][Nlys][Nspe][Nspe][Nlys][Nspe]-NH2) . Its measured selectivity ratio is 1.8
